molecular target: CXCR4 (Homo sapiens, UniProt P61073); construct: endogenous in cells; host or cells: MDA-MB-231; test: Primary binding affinity screening (competition with biotinylated TN14003); conditions: effective concentration = lowest concentration with significant reduction of rhodamine fluorescence; MDA-MB-231 cells; tested at 1, 10, 100, 1000 nM
Sequence (P61073 whole entry): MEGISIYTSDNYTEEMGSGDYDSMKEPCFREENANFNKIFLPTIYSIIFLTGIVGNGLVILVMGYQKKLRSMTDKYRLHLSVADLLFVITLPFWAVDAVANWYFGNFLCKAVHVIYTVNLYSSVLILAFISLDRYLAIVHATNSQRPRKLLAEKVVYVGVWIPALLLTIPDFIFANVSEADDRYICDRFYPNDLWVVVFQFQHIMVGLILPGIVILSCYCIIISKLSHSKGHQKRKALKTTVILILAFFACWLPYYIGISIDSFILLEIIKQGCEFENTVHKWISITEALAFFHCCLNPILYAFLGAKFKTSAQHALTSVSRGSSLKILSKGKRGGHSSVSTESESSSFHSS
measurementType: EC (nM)
Your answer should be a plain number; it is taken to be in nM.

- compound: "c1ccc(CN(Cc2ccc(CN(Cc3ccccc3)CC3CC3)cc2)CC2CC2)cc1 [Im]"
  targetOrTestSystem: "CXCR4 (Homo sapiens, UniProt P61073)"
  measurementType: "EC"
  scaleUnit: "nM"
  recordedResult: 1000
- compound: "c1cc(CN2CCCC2)ccc1CN1CCCC1 [Ia, 1,4-Bis(pyrrolidin-1-ylmethyl)benzene]"
  targetOrTestSystem: "CXCR4 (Homo sapiens, UniProt P61073)"
  measurementType: "EC"
  scaleUnit: "nM"
  recordedResult: 1000
- compound: "c1cc(CN2CCOCC2)nc(CN2CCOCC2)c1 [IIc, 2,6-Bis(morpholinomethyl)pyridine]"
  targetOrTestSystem: "CXCR4 (Homo sapiens, UniProt P61073)"
  measurementType: "EC"
  scaleUnit: "nM"
  recordedResult: 100

Next compound, EC to be filled in.
get_value(item= CN(Cc1ccc(CN(C)c2ccc(F)cc2)cc1)c1ccc(F)cc1 [Ie] , readout=EC) returns 100

====

Listing of entries alongside the reported melting point.

Illustrative cases are given below, each with its answer.
- molecule: "CN(Cc1cccc(CN(C)c2ccccc2)n1)c1ccccc1 [IId]"
  melting point: "91 to 93 °C"
- molecule: "c1cc(CN2CCOCC2)ccc1CN1CCOCC1 [Ic, 1,4-Bis(morpholinomethyl)benzene]"
  melting point: "113 to 115 °C"
- molecule: "CN(Cc1ccc(F)cc1)Cc1ccc(CN(C)Cc2ccc(F)cc2)cc1 [Ij]"
  melting point: "80 to 82 °C"
- molecule: "CN(Cc1ccc(CN(C)c2ccccc2)cc1)c1ccccc1 [Id]"
  melting point: "77 to 79 °C"
- molecule: "CN(Cc1ccc(CN(C)c2ccc(F)cc2)cc1)c1ccc(F)cc1 [Ie]"
  melting point: "78 to 80 °C"

get_value(item= c1cc(CN2CCCCC2)ccc1CN1CCCCC1 [Ib, 1,4-Bis(piperidin-1-ylmethyl)benzene] , readout=melting point) returns 84 to 86 °C

====

target: CXCR4 (Homo sapiens, UniProt P61073); construct: endogenous in cells; host or cells: MDA-MB-231; assay: Primary binding affinity screening (competition with biotinylated TN14003); conditions: effective concentration = lowest concentration with significant reduction of rhodamine fluorescence; MDA-MB-231 cells; tested at 1, 10, 100, 1000 nM
Listing of entries alongside the reported EC.
Your answer should be a plain number; it is taken to be in nM.

get_value(item= c1cc(CN2CCCNCCNCCCNCC2)ccc1CN1CCCNCCNCCCNCC1 [AMD3100, reference compound] , readout=EC) returns 1000

get_value(item= c1cc(CN2CCCCC2)nc(CN2CCCCC2)c1 , readout=EC) returns 1

get_value(item= CN(Cc1ccc(CN(C)Cc2cccc(Cl)c2)cc1)Cc1cccc(Cl)c1 , readout=EC) returns 1000

get_value(item= c1cc(CN2CCCC2)nc(CN2CCCC2)c1 , readout=EC) returns 1
